test: Stock solution stability of chloroquine; assay type: physicochemical; details: LQC (3 ng/ml), 40 days at -20°C vs freshly prepared, read-out: Solution stability (40 day), Recovery (mean ± SD, %)

Compound	recovery at 40 day, 3 ng/ml [%]
CCN(CC)CCCC(C)Nc1ccnc2cc(Cl)ccc12 (stereo not shown) [chloroquine]	102

* * *

experiment: Stability of chloroquine in miniature pig plasma QC samples under different storage conditions; type: in vitro ADME; settings: miniature pig plasma (spiked QC samples), HQC (75 ng/ml), plasma QC standing prior to preparation, read-out: Benchtop stability (8 h), Recovery (mean ± SD, %)

Compound	Unit Spec	recovery at 8 h, 75 ng/ml
CCN(CC)CCCC(C)Nc1ccnc2cc(Cl)ccc12 (stereo not shown) [chloroquine]	%	103
